src = PubChem BioAssay (NCI)

- Test system: SW-620 colon
- experiment: NCI-60 one-dose screen, 48 h (100 = growth as untreated, 0 = no growth, -100 = all killed)
- setup.conditions: 10 µM unless noted
About 83,000 compounds went through this panel and 20% of them were active in at least one assay; those are over-represented in the sample as a whole.
measurement.type: growth (%)
// return numeric value only (unit: %, not printed)

compound=CNC(=O)c1cc(Oc2ccc3nc(NC(=O)Nc4ccc(Cl)c(C(F)(F)F)c4)sc3c2)ccn1 value_reported=21.5
compound=CCS(=O)(=O)N1CCN(c2ccc(Nc3ncc(C(N)=O)c(NC4CC4)n3)cc2)CC1 value_reported=60.1
compound="CCOC(=O)C1=C(C)NC(=O)NC1c1cc(=O)oc2ccc(C)cc12 (centres undefined)" value_reported=108
compound="CC(C)=CCc1cc2c(cc1O)C1=C(C(=O)C3=C(NCCS3(=O)=O)C1=O)C(C=C(C)C)O2 (centres undefined)" value_reported=6.34
compound=COc1cc2ncnc(Nc3ccc(F)c(Cl)c3)c2cc1NC(=O)/C=C/CN1CCCCC1 value_reported=-78.4
compound=CCc1nc(C(N)=O)c(Nc2ccc(N3CCC(N4CCN(C)CC4)CC3)c(OC)c2)nc1NC1CCOCC1 value_reported=3.96

Prompt: Quick check: growth of CCN1CCN(Cc2ccc(Cc3ncc(F)c(-c4cc(F)c5nc(C)n(C(C)C)c5c4)n3)nc2)CC1 ?
Completion: -5.5

Prompt: Param item: N#CC(C#N)=NO
Completion: 100

Prompt: Param item: C=CCN(/C=C1/C(=O)O[C@H](COC)[C@@]2(C)C1=C(O)C(=O)C1=C2[C@H](OC(C)=O)C[C@]2(C)C(=O)CC[C@@H]12)CC=C
Completion: 39.8
